molecular target: human leukocyte elastase (HLE) (Homo sapiens); test: Inactivation of human leukocyte elastase: kon measured, Ki* = koff/kon calculated; assay type: biochemical; conditions: Elastase; rate of inactivation kon = kobs/[I]; value is kon x 10^-3; read-out: 10^-3 x kon
Sequence (P08246 30-267): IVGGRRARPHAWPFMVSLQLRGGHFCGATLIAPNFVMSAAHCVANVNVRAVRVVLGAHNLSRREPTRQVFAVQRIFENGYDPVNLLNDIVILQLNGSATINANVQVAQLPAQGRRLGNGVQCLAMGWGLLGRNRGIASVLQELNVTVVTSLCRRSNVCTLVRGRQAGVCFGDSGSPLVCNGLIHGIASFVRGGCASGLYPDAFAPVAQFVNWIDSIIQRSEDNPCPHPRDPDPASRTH
readout.label: kinact/KI

In [3]: df
Out[3]:
                                   compound  readout_label          result
0  CCC(CC)c1cccc2c1C(=O)N(CCl)S2(=O)=O [Example 22C, 2-chloromethyl-4-(3-pentyl)saccharin]      kinact/KI  105000 M⁻¹ s⁻¹
1  O=C1c2c(Cl)cccc2S(=O)(=O)N1Cn1nnn(-c2ccccc2)c1=S [Example 5]      kinact/KI   44000 M⁻¹ s⁻¹
2  O=C1c2c(-c3ccccc3)cccc2S(=O)(=O)N1CCl [Example 18, 2-chloromethyl-4-phenylsaccharin]      kinact/KI    1000 M⁻¹ s⁻¹
3  CCC(C)c1cccc2c1C(=O)N(CCl)S2(=O)=O (stereo not shown) [Example 22B, 2-chloromethyl-4-sec.-butylsaccharin]      kinact/KI    2400 M⁻¹ s⁻¹
